Target: LXRβ (Homo sapiens)
Construct: Co-transfection expression plasmids, comprising full-length LXRα (pCMX-h LXRα or LXRβ (pCMX-hLXRβ))
Experiment: LXR/LXRE co-transfection assay (luciferase reporter) in CV-1 cells, LXRβ
Settings: CV-1 cells transfected with pCMX-hLXRβ and LXREx1-Tk-Luciferase, 20 hours incubation, read-out: LXRbeta agonism EC50
Protocol: To measure the ability of compounds to activate or inhibit the transcriptional activity of LXR in a cell based assay, the co-transfection assay was used. It has been shown that LXR functions as a heterodimer with RXR. […] Treatment of transfected cells with an LXR agonist increases the transcriptional activity of LXR, which is measured by an increase in luciferase activity. […]
REPORTED ENDPOINT: EC50 (nM)

> print(dat)
                         structure.notation  reported.value
1  Cc1nc(-c2ccc(C(F)(F)F)cc2)c(-c2cc(-c3cccc(S(C)(=O)=O)c3)ccc2-n2cc(Cl)c(C(F)(F)F)n2)o1             321

P: Cc1nc(-c2ccc(OC(F)(F)F)cc2)c(-c2cc(-c3cc(F)c(CO)c(S(C)(=O)=O)c3)ccc2-c2cc(C(F)(F)C(N)=O)nn2C)o1
Q: Cc1nc(-c2ccc3c(c2)OC(F)(F)O3)c(-c2cc(-c3cc(F)c(CO)c(S(C)(=O)=O)c3)ccc2-c2cc(CC#N)nn2C)o1
**Q:** Which of the two gives a bigger number for EC50: P or Q ? Give the label under which the chosen entry appears.
**A:** P

###

Biological target: LXRβ (Homo sapiens)
Construct: Co-transfection expression plasmids, comprising full-length LXRα (pCMX-h LXRα or LXRβ (pCMX-hLXRβ)); expressed in transfected cells; host or cells: CV-1 African green monkey kidney cells, transient transfection with pCMX-hLXRβ
Experiment: LXR/LXRE co-transfection assay (luciferase reporter) in CV-1 cells, LXRβ
Format: cell-based
Details: CV-1 cells, relative to maximum response of high control N-(3-((4-fluorophenyl)-(naphthalene-2-sulfonyl)amino)propyl)-2,2-dimethylpropionamide, read-out: LXRbeta % EFFICACY
REPORTED ENDPOINT: Emax (%)

> print(dat)
                                   compound  reported.value
1  Cc1nc(-c2ccc(OC(F)(F)F)cc2)c(-c2cc(-c3cc(F)cc(S(C)(=O)=O)c3)ccc2-n2ccc(C(F)(F)F)n2)o1 [Example 334]              80
2  Cn1nc(C(C)(F)F)cc1-c1ccc(-c2cc(F)c(CO)c(S(C)(=O)=O)c2)cc1-n1nncc1-c1ccc(OC(F)(F)F)cc1 [Example 21]              82

A: Cc1nc(-c2cc(-c3cccc(S(C)(=O)=O)c3)ccc2-n2nc(C(F)(F)F)cc2C)c(-c2ccc3c(c2)OC(F)(F)O3)o1 [Example 388]
B: Cc1nc(-c2cc(-c3cccc(S(C)(=O)=O)c3)ccc2-n2ccc(C(C)(C)O)n2)c(-c2ccc(OC(F)(F)F)cc2)o1 [Example 417]
**Q:** Looking only at measured Emax, which entry is lower, A or B ? Kindly give the label for the entry you pick.
**A:** B
(B: 16%, A: 78%)

###

Biological target: LXRβ (Homo sapiens, UniProt P55055)
Construct: Co-transfection expression plasmids, comprising full-length LXRα (pCMX-h LXRα or LXRβ (pCMX-hLXRβ))
Sequence (P55055 whole entry): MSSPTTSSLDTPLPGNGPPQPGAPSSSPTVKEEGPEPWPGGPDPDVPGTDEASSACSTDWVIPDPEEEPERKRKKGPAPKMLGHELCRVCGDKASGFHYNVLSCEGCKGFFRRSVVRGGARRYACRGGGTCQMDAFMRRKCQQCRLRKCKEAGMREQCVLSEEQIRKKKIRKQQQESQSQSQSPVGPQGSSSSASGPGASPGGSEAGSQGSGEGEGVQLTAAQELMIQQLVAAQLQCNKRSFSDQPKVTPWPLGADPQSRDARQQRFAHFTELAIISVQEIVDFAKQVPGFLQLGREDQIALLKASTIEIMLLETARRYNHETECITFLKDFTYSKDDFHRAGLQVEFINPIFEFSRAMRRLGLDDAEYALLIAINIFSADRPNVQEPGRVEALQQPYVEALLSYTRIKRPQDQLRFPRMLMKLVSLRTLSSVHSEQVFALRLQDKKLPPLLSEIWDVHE
Sequence (P19793 whole entry partner): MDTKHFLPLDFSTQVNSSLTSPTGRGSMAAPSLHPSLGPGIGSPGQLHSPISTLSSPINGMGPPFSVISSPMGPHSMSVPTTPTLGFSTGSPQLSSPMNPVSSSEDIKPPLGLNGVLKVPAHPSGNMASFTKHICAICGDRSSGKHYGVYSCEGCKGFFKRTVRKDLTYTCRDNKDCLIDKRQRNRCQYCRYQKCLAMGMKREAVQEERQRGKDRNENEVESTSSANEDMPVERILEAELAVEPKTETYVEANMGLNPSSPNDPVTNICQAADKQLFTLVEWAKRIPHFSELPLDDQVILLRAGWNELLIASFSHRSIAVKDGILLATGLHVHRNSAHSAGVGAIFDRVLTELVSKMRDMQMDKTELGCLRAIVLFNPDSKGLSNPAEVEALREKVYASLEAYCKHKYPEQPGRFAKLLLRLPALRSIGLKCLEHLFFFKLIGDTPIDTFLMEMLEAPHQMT
Experiment: LXR/LXRE co-transfection assay (luciferase reporter) in CV-1 cells, LXRβ
Settings: CV-1 cells transfected with pCMX-hLXRβ and LXREx1-Tk-Luciferase, 20 hours incubation, read-out: LXRbeta agonism EC50
pEC50: −log10 of the molar value.
REPORTED ENDPOINT: pEC50

> print(dat)
                         structure.notation  reported.endpoint  reported.value
1  CNC(=O)C(F)(F)c1cc(-c2ccc(-c3cc(F)c(CO)c(S(C)(=O)=O)c3)cc2-c2nc(C)oc2-c2ccc3c(c2)OC(F)(F)O3)n(C)n1              pEC50            6.87
2  Cc1nc(-c2ccc(OC(F)(F)F)cc2)c(-c2cc(-c3cccc(S(C)(=O)=O)c3)ccc2-n2ccc(C(=O)NCC(F)(F)F)n2)o1              pEC50            6.92
3  Cc1nc(-c2ccc(OC(F)(F)F)cc2)c(-c2cc(-c3cc(F)c(CO)c(S(C)(=O)=O)c3)ccc2-n2ccc(C(C)(C)O)n2)o1              pEC50            7.04

###

Molecular target: LXRβ (Homo sapiens, UniProt P55055)
Construct: Co-transfection expression plasmids, comprising full-length LXRα (pCMX-h LXRα or LXRβ (pCMX-hLXRβ)); expressed in transfected cells; host or cells: CV-1 African green monkey kidney cells, transient transfection with pCMX-hLXRβ
Assay: LXR/LXRE co-transfection assay (luciferase reporter) in CV-1 cells, LXRβ
Format: cell-based
Settings: CV-1 cells, relative to maximum response of high control N-(3-((4-fluorophenyl)-(naphthalene-2-sulfonyl)amino)propyl)-2,2-dimethylpropionamide, read-out: LXRbeta % EFFICACY
REPORTED ENDPOINT: Emax (%)

> print(dat)
                                   compound                        target.entity  reported.endpoint  measure.unit  reported.value
1  Cc1nc(-c2ccc(OC(F)(F)F)cc2)c(-c2cc(-c3cc(F)c(CO)c(S(C)(=O)=O)c3)ccc2-n2nc(C(F)(F)F)cc2C2CC2)o1  LXRβ (Homo sapiens, UniProt P55055)               Emax             %              48
2  Cc1nc(-c2cc(-c3ccc(CO)c(S(C)(=O)=O)c3)ccc2-n2nc(C(F)(F)F)cc2C)c(-c2ccc(OC(F)(F)F)cc2)o1  LXRβ (Homo sapiens, UniProt P55055)               Emax             %              79
3  Cc1cc(C(C)(F)F)n(-c2ccc(-c3cccc(S(C)(=O)=O)c3)cc2-n2nncc2-c2ccc(OC(F)(F)F)cc2)n1  LXRβ (Homo sapiens, UniProt P55055)               Emax             %              71
4  Cc1nc(-c2ccc3c(c2)OC(F)(F)O3)c(-c2cc(-c3cc(F)c(CO)c(S(C)(=O)=O)c3)ccc2-c2cc(C(F)(F)C(=O)NCC(F)(F)F)nn2C)o1  LXRβ (Homo sapiens, UniProt P55055)               Emax             %              34
5  Cc1nc(-c2ccc(OC(F)F)c(F)c2)c(-c2cc(-c3cccc(S(C)(=O)=O)c3)ccc2-c2cc(C(F)(F)CO)nn2C)o1  LXRβ (Homo sapiens, UniProt P55055)               Emax             %              88

I: CC(C)c1nc(-c2ccc(OC(F)(F)F)cc2)c(-c2cc(-c3cc(F)c(CO)c(S(C)(=O)=O)c3)ccc2-n2ccc(C(F)(F)F)n2)o1
II: Cc1nc(-c2ccc(OC(F)(F)F)cc2)c(-c2cc(-c3cccc(S(C)(=O)=O)c3)ccc2-n2ccc(C(C)(C)O)n2)o1
III: Cc1nc(-c2ccc3c(c2)OC(F)(F)O3)c(-c2cc(-c3cc(F)c(CO)c(S(C)(=O)=O)c3)ccc2-c2cc(C(C)O)nn2C)o1 (centres unmarked)
IV: Cc1c(C(C)(F)F)nn(C)c1-c1ccc(-c2cc(F)c(CO)c(S(C)(=O)=O)c2)cc1-n1nncc1-c1ccc(OC(F)(F)F)cc1
**Q:** Which order do these items take when sorted by rising Emax? List them. The response must list the labels following the requested ordering.
**A:** II, III, I, IV

###

Biological target: LXRβ (Homo sapiens, UniProt P55055)
Construct: Co-transfection expression plasmids, comprising full-length LXRα (pCMX-h LXRα or LXRβ (pCMX-hLXRβ)); expressed in transfected cells; host or cells: CV-1 African green monkey kidney cells, transient transfection with pCMX-hLXRβ
Assay: LXR/LXRE co-transfection assay (luciferase reporter) in CV-1 cells, LXRβ
Format: cell-based
Details: CV-1 cells, relative to maximum response of high control N-(3-((4-fluorophenyl)-(naphthalene-2-sulfonyl)amino)propyl)-2,2-dimethylpropionamide, read-out: LXRbeta % EFFICACY
Procedure: To measure the ability of compounds to activate or inhibit the transcriptional activity of LXR in a cell based assay, the co-transfection assay was used. It has been shown that LXR functions as a heterodimer with RXR. […] Treatment of transfected cells with an LXR agonist increases the transcriptional activity of LXR, which is measured by an increase in luciferase activity. […]
REPORTED ENDPOINT: Emax (%)

# example entries with known answers
> print(dat)
                                    compound                        target.entity  reported.endpoint  reported.value
 1  Cc1nc(-c2cc(-c3cc(F)c(CO)c(S(C)(=O)=O)c3)ccc2-n2ccc(C(F)(F)F)n2)c(-c2ccc(Cl)cc2)o1  LXRβ (Homo sapiens, UniProt P55055)               Emax              53
 2  Cc1nc(-c2ccc3c(c2)OC(F)(F)O3)c(-c2cc(-c3cc(F)c(CO)c(S(C)(=O)=O)c3)ccc2-c2cc(C(C)OC(N)=O)nn2C)o1 (centres unmarked)  LXRβ (Homo sapiens, UniProt P55055)               Emax              47
 3  Cc1nc(-c2ccc3c(c2)OC(F)(F)O3)c(-c2cc(-c3cc(F)c(CO)c(S(C)(=O)=O)c3)ccc2-n2cc(Cl)c(C(F)(F)F)n2)o1  LXRβ (Homo sapiens, UniProt P55055)               Emax              74
 4  Cc1cc(C(F)(F)F)nn1-c1ccc(-c2cc(Cl)c(CO)c(S(C)(=O)=O)c2)cc1-n1nncc1-c1ccc(OC(F)(F)F)cc1  LXRβ (Homo sapiens, UniProt P55055)               Emax              93
 5  Cc1nc(-c2ccc(OC(F)(F)F)cc2)c(-c2cc(-c3cccc(C(C)(C)C(N)=O)c3)ccc2-n2ccc(C(=O)NCC(F)(F)F)n2)o1  LXRβ (Homo sapiens, UniProt P55055)               Emax              28
 6  Cc1nc(-c2ccc(OC(F)(F)F)cc2)c(-c2cc(-c3cc(Cl)c(CO)c(S(C)(=O)=O)c3)ccc2-c2cc(C(F)(F)F)nn2C)o1  LXRβ (Homo sapiens, UniProt P55055)               Emax              88
 7  Cn1nc(C(F)(F)CO)cc1-c1ccc(-c2cccc(S(C)(=O)=O)c2)cc1-n1nncc1-c1ccc(Cl)cc1  LXRβ (Homo sapiens, UniProt P55055)               Emax              48
 8  Cc1nc(-c2ccc3c(c2)OC(F)(F)O3)c(-c2cc(-c3cccc(S(C)(=O)=O)c3)ccc2-n2nc(C(F)(F)F)cc2Cl)o1  LXRβ (Homo sapiens, UniProt P55055)               Emax              90
 9  CNC(=O)C(F)(F)c1cc(-c2ccc(-c3cc(F)c(CO)c(S(C)(=O)=O)c3)cc2-c2nc(C)oc2-c2ccc3c(c2)OC(F)(F)O3)n(C)n1  LXRβ (Homo sapiens, UniProt P55055)               Emax              45
10  CNS(=O)(=O)c1cccc(-c2ccc(-c3cc(C(F)(F)F)nn3C)c(-c3oc(C)nc3-c3ccc(OC(F)(F)F)cc3)c2)c1  LXRβ (Homo sapiens, UniProt P55055)               Emax              99

P: Cc1nc(-c2cc(-c3cc(F)c(CO)c(S(C)(=O)=O)c3)ccc2-c2cc(C(C)(C)CO)nn2C)c(-c2ccc3c(c2)OC(F)(F)O3)o1
Q: Cc1nc(-c2ccc3c(c2)OC(F)(F)O3)c(-c2cc(-c3cccc(S(C)(=O)=O)c3)ccc2-n2ccc(C(C)(C)O)n2)o1
**Q:** Exercise: compare P and Q ; which one has the greater Emax? Answer = label.
**A:** P
(P: 72%, Q: 41%)
